For each entry below, report its half-life at 3 μM value.
experiment: Rat liver microsomal stability assay; type: in vitro ADME; conditions: both sexes, pooled rat liver microsomes, pH 7.4; rat liver microsomes 0.5 mg/mL, 3 μM compound, NADPH, 37° C., 45 min; read-out: T1/2, rat liver microsomal stability

INPUT: Data request, read-out half-life at 3 μM, for CN(C(=O)c1ccnc(N2Cc3cn(Cc4ccc(F)cc4)nc3C2)n1)C1CCCC1 [Compound 226]
OUTPUT: < 1 min

INPUT: # iterate: O=C(c1cccc(N2Cc3cn(Cc4ccc(F)cc4)nc3C2)c1)N1CCCCC1 [Compound 242]
OUTPUT: 14 min

INPUT: # iterate: CN(C(=O)c1cncc(N2Cc3cn(Cc4ccc(F)cc4)nc3C2)n1)C1CCCC1 [Compound 228]
OUTPUT: < 1 min

INPUT: # iterate: CN(C(=O)c1ccnc(N2Cc3cn(Cc4ccc(F)cc4)nc3C2)n1)C1CCCCC1 [Compound 230]
OUTPUT: < 1 min
